assay-protocol: in vitro
measurement-setup: human, Caco-2
Ends that are not written are not given here.
endpoint-name: Papp A→B (×10⁻⁶ cm/s)
I only need the number, in ×10⁻⁶ cm/s, no unit after it.

Any idea what its Papp A→B is? The substance is SIFTLVA [iAM373]
0.14
